# Test Summary: qHTS of pediatric cancer cell lines to identify multiple opportunities for drug repurposing: Primary screen for BT-12 cells (AID 1347101); also: nearly all actives have a fitted effect of over 25% in size; also: potency is read from the fitted curve at half-maximal effect
# Experimental Setup: BT-12 viability, CellTiter-Glo luminescence, 48 h; series mostly up to 57.3 µM
Inconclusive results are not listed. The source made the active and inactive calls. Calls follow the shape of the dose curve; as a rule, active = well fitted cell-killing curve with a large enough effect; inconclusive = small, poorly fitted or top-dose-only effect; inactive = flat fitted curve, though single readings scatter.
Reported Endpoint: Potency

Example entries and their recorded answers appear below.
O=S(=O)(O)C(F)(F)C(F)(F)C(F)(F)C(F)(F)C(F)(F)C(F)(F)C(F)(F)C(F)(F)F    inactive
C[C@H]1CCCC=CC2C[C@H](O)C[C@@H]2[C@H](O)C=CC(=O)O1 (stereo partly specified)    1 nM (active)
CC(C)(C)C(O)C(Oc1ccc(Cl)cc1)n1cncn1 (stereo unspecified)    inactive
C1CCC(NC2CCCCC2)CC1    inactive
Cc1c(C(=O)c2cccc3ccccc23)c2cccc3c2n1[C@H](CN1CCOCC1)CO3    27300 nM (active)

Prompt: Potency lookup needed for COc1cc2cc(c1Cl)N(C)C(=O)C[C@H](OC(=O)C(C)C)[C@]1(C)O[C@H]1[C@H](C)[C@@H]1C[C@@](O)(NC(=O)O1)[C@H](OC)C=CC=C(C)C2 , thanks.
Completion: 48.5 nM (active)

Prompt: Next molecule: C[C@@]12OC(=O)[C@]1([C@@H](O)[C@@H]1C=CCCC1)NC(=O)[C@H]2CCCl
Completion: 137 nM (active)

Prompt: // repeat for Cc1[nH]nc2ccc(-c3cncc(OC[C@@H](N)Cc4c[nH]c5ccccc45)c3)cc12 and report
Completion: 1530 nM (active)

Prompt: Entry O=[N+]([O-])c1c(Cl)c(Cl)cc(Cl)c1Cl please
Completion: inactive

Origin of measurements: PubChem BioAssay (NCATS)
